- System: PXR:RXRa (NR concentration 270 nM, RXRa partner concentration 90 nM)
- assayProtocol: PBM binding z-score (relative to random genomic background probes); higher = stronger binding; sequences stand for … in GC…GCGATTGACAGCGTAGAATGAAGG
Label rule, in plain words: PBM binding z-score of 1 and up is YES, under 1 is NO.

Check the entry CGTCCAAGGTCGGCAGGTCAGTGAAAGCGACGTG : does PBM binding z-score equal or exceed 1? YES

Check the entry ATATGTAGATTATCGGGTCATTCAGTTTGCGCAT : does PBM binding z-score equal or exceed 1? YES

Check the entry TCTCGGAGGACACGAAGGTCAGACCTTTCCAGAG : does PBM binding z-score equal or exceed 1? YES

Check the entry CCTACTGGGCCATTCAGAGGTCTTTGATCATATG : does PBM binding z-score equal or exceed 1? NO

Check the entry AGAATGAGGTTATCAAGATCAGGGAATTGCGGTC : does PBM binding z-score equal or exceed 1? YES

Check the entry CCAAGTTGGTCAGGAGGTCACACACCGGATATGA : does PBM binding z-score equal or exceed 1? YES

----------
- Tested on: PPARg:RXRa 270nM:90nM, anti-RXR (NR concentration 270 nM, RXRa partner concentration 90 nM)
- assayProtocol: PBM binding z-score (relative to random genomic background probes); higher = stronger binding; sequences stand for … in GC…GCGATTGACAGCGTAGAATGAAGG
Please respond with reported PBM binding z-score for every item in the list.
The response must contain the number and no unit.

Return reported PBM binding z-score; argument: GATACAGGGTCAGCTAGAGTCCAGAGTATGGAAA 3.12

Return reported PBM binding z-score; argument: GCCACTGGGGCAAAGCAGGTTACCATAAGGTTGG 2.57

Return reported PBM binding z-score; argument: CCTCGGAGGACAGAACGTCAGAGCTGTCCGCTTT -1.32

Return reported PBM binding z-score; argument: CGGACTGGGGCAAGGTTACCATAACGCACAGCCA 4.78

Return reported PBM binding z-score; argument: AATACAGGGTCACTAGGCCACAGTAGGTACGAAT 7.43

Return reported PBM binding z-score; argument: CCTAGTTGGTCAGGAGGTCAGACACCGGATATGA 2.35

Return reported PBM binding z-score; argument: AATACAGGGTCAACGTAGGCCAGAGTACGCACAG 6.32

Return reported PBM binding z-score; argument: CCTTACGGGTCACGAGTTTATAGCACGACGAGCG 5.87

Return reported PBM binding z-score; argument: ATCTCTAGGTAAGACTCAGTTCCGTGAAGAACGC 0.0133

Return reported PBM binding z-score; argument: CCAGACAGGTGAGTAGGTAACTCAGCCTCGATTA 0.565

Return reported PBM binding z-score; argument: CAAACTAGGTCGAAGGTCAAAGTCGAGCCAACCA 10.2

Return reported PBM binding z-score; argument: ACTATTAGTTGAGACGAGGGCAACCGCTAGGTTG 0.207

----------
- Tested on: RARg:RXRa (NR concentration 270 nM, RXRa partner concentration 90 nM)
- assayProtocol: PBM binding z-score (relative to random genomic background probes); higher = stronger binding; sequences stand for … in GC…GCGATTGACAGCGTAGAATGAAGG
parameterMeasured: PBM binding z-score

Return reported PBM binding z-score; argument: CCTAGTTGGTCAGGATGTCACACACCGGATATGA 0.74

Return reported PBM binding z-score; argument: TGGAGTAGGTTAGGGGCATTCAGAATGGCGTCGA 0.847

Return reported PBM binding z-score; argument: ATCTCTAGGTAACCAAGTTCAATGAATGCCGAAC 0.955

Return reported PBM binding z-score; argument: GCTAGCAGACCATTTGGGTCACTCAATGACGGGC 0.72

Return reported PBM binding z-score; argument: CGAACAAGGTCAGAACAGGACAGTGAAGGATGAT 4.38

Return reported PBM binding z-score; argument: TTACCGAGGTGAAGGTCGTTGATCCCTCTGTAGA 1.58

These data points were gathered from the supplement of paper PMC6555819.
